The measured values listed here are drawn from ChEMBL document CHEMBL1128423.

Molecular target: Glutamate NMDA receptor
Assay: Displacement of [3H]TCP from NMDA receptor of rat brain membranes
Assay type: cell membranes, Membrane
Hi there, I'd appreciate the recorded pKi for every entry that follows.
Numbers only, as −log10 of the molar value.

Example entries begin here.
Nc1ccc2c(c1)C1C3CCCC3C2N2CCCCC12 (stereo not given) ... 7.92
Brc1ccc2c(c1)C1C3CCCC3C2N2CCCCC12 (stereo not given) ... 7.39
Oc1cccc2c1C1C3CCCC3C2N2CCCCC12 (stereo not given) ... 8.64
c1ccc2c(c1)C1CCC2N2CCCCC12 (stereo not given) ... 6.62

Moving on to another molecule below.
Return the recorded pKi value; entry: c1ccc2c(c1)C1C3CCCC3C2N2CCCCC12 (stereo not given) 7.82
